- Measurement target: Bile salt export pump (Homo sapiens, UniProt O95342); further: assay procedure not described here
- Sequence (O95342 whole entry): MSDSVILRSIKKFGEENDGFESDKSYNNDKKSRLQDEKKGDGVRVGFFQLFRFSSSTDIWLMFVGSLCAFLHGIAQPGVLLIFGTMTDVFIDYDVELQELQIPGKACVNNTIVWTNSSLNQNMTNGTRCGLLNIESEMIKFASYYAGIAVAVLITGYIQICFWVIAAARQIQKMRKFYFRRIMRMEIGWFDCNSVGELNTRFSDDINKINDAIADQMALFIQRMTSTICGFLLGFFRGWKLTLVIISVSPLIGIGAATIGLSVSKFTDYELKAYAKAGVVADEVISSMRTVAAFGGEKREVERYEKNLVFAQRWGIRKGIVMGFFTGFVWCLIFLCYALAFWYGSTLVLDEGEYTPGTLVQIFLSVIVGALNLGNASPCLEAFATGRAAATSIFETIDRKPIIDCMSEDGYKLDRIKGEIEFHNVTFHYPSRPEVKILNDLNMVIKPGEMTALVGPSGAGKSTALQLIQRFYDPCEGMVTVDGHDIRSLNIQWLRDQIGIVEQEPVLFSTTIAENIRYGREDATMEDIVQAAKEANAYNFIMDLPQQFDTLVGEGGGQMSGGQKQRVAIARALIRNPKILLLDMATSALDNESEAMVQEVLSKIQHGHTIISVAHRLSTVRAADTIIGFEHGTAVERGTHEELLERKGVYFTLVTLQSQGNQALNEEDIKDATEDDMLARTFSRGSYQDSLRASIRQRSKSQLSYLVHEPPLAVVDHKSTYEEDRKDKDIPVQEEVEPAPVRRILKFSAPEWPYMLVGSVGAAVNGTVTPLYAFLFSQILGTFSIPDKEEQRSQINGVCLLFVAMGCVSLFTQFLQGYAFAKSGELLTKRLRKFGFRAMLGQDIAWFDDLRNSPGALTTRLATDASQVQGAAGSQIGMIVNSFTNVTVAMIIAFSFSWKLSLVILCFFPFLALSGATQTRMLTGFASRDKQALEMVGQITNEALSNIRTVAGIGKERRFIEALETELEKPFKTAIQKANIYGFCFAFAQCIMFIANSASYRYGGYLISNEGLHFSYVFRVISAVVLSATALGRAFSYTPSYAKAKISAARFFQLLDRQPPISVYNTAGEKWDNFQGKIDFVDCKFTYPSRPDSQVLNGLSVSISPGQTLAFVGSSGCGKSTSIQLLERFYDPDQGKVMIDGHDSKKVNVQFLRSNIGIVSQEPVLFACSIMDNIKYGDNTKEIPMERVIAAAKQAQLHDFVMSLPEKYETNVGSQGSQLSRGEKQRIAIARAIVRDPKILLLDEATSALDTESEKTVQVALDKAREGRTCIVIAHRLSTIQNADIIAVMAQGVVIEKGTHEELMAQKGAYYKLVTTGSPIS
- Format: functional
Quantity: AC50 (µM)
Give bare numbers, in µM.

Below are worked cases with known answers.
O=C1Cc2cc(CCN3CCN(c4nsc5ccccc45)CC3)c(Cl)cc2N1 ... 18
C=CC(=O)Nc1cccc(Oc2nc(Nc3ccc(N4CCN(C)CC4)cc3)nc3ccsc23)c1 ... 13
CC[C@H](C)C(=O)O[C@H]1C[C@@H](C)C=C2C=C[C@H](C)[C@H](CC[C@@H]3C[C@@H](O)CC(=O)O3)[C@H]21 ... 27

# batch size: 2; output AC50 per entry
1. Cc1onc(-c2c(F)cccc2Cl)c1C(=O)N[C@@H]1C(=O)N2[C@@H]1SC(C)(C)[C@@H]2C(=O)O
2. CN(CCOc1ccc(CC2SC(=O)NC2=O)cc1)c1ccccn1 (stereo not drawn)

1. 50
2. 1
